- Test system: Kochia (Kochia scoparia)
- ASSAY_PROTOCOL: Test A postemergence
- Assay type: in vivo
- PROTOCOL_CONDITIONS: Bassia scoparia, post-emergence, 240 h, 125 g ai/ha, Postemergence; visual injury after approximately 10 d; 0 to 100 scale where 0 is no effect and 100 is complete control; read-out: Plant response rating, Kochia
# reported pest or weed control at 125 g/ha; entries follow

SMI	pest or weed control at 125 g/ha
Cc1cc([C@H]2CN(C)C(=O)[C@@H]2C(=O)Nc2ccccc2S(C)(=O)=O)ccc1Cl	0%
CN1C[C@H](c2ccc(C(F)(F)F)cc2)[C@@H](C(=O)Nc2cccc(F)c2Cl)C1=O	40%
O=C(Nc1cccc(Cl)c1F)[C@H]1C(=O)N(C2CC2)CC[C@@H]1c1cccc(C(F)(F)F)c1	0%
CC(C)COc1cccc([C@H]2CNC(=O)[C@@H]2C(=O)Nc2ccc(F)cc2F)c1	0%
CC(C)Oc1ccc([C@H]2CN(C)C(=O)[C@@H]2C(=O)Nc2ccc(F)cc2F)cc1	0%

Asked: What measured pest or weed control at 125 g/ha is associated with CN1C[C@H](c2csc(C(F)(F)F)c2)[C@@H](C(=O)Nc2cccc(F)c2F)C1=O on Kochia (Kochia scoparia)?
Given back: 50%

Asked: I'm curious: which pest or weed control at 125 g/ha was measured for CN1CC[C@H](c2cccc(Cl)c2)[C@@H](C(=O)Nc2ccccc2F)C1=O tested on Kochia (Kochia scoparia)?
Given back: 0%

Asked: So what pest or weed control at 125 g/ha did CN1CC[C@H](c2cccc(Cl)c2)[C@@H](C(=O)Nc2cccc(Cl)c2F)C1=O get with Kochia (Kochia scoparia)?
Given back: 0%

---

Plant response rating, Foxtail, Giant listing for selected compounds.
- System: foxtail, giant (giant foxtail, Setaria faberii)
- ASSAY_PROTOCOL: Test C preemergence
- Format: in vivo
- PROTOCOL_CONDITIONS: 250 g ai/ha, scale 0 to 100, 0 no effect, 100 complete control

COMPOUND	SYSTEM_UNDER_TEST	RECORDED_VALUE
CN1CC(c2cc(F)cc(F)c2)C(C(=O)Nc2cccc(F)c2F)C1=O (stereo not shown) [Compound 644]	foxtail, giant (giant foxtail, Setaria faberii)	98
CN1CC(c2cccc(OC(F)F)c2)C(C(=O)Nc2ccc(F)cc2F)C1=O (stereo not shown) [Compound 617]	foxtail, giant (giant foxtail, Setaria faberii)	98
Cc1ccc(C2CN(C)C(=O)C2C(=O)Nc2ccccc2C(F)(F)F)cc1 (stereo not shown) [Compound 665]	foxtail, giant (giant foxtail, Setaria faberii)	98

Could you now look at the following compound, please?
Asked: Fill in the blank: the reported Plant response rating, Foxtail, Giant of CC(C)Oc1cccc(C2CN(C)C(=O)C2C(=O)Nc2ccccc2S(C)(=O)=O)c1 (stereo not shown) [Compound 653] is ____.
Given back: 100

---

- Tested on: redroot pigweed (Amaranthus retroflexus)
- ASSAY_PROTOCOL: Test G Pre-Emergence Protocol
- Format: in vivo
- PROTOCOL_CONDITIONS: Amaranthus retroflexus, pre-emergence, 312 h, 62.5 g ai/ha, evaluated after 13 days, 100=total damage to plant, 0=no damage to plant, read-out: Pigweed, Redroot damage rating
- Text: Seeds of corn (Zea mays), giant foxtail (Setaria faberi), barnyardgrass (Echinochloa crus-galli), ivy-leaved morning glory (Ipomoea hederacea), redroot pigweed (Amaranthus retroflexus) and velvetleaf (Abutilon theophrasti) were sown in standard soil in pots. […]
OBSERVABLE: pest or weed control at 62.5 g/ha

Asked: What does the data say about its pest or weed control at 62.5 g/ha? Entry: Cc1cc(F)ncc1NC(=O)[C@H]1C(=O)N(C)C[C@@H]1c1ccc(C(F)(F)F)cc1 (racemic)
Given back: 70%

Asked: State the recorded pest or weed control at 62.5 g/ha for this entry: CCc1cc([C@@H]2CN(C)C(=O)[C@H]2C(=O)Nc2cccc(F)c2C)ccc1Cl (racemic)
Given back: 20%

Asked: // returns reported pest or weed control at 62.5 g/ha for input CN1C[C@H](c2cccc(C(F)(F)F)c2)[C@@H](C(=O)Nc2cccc(O)c2F)C1=O (racemic)
Given back: 0%

Asked: Which pest or weed control at 62.5 g/ha is listed for CN1C[C@@H](c2cc(Br)cc(Oc3ccccc3)c2)[C@H](C(=O)Nc2cccc(F)c2F)C1=O (racemic) ?
Given back: 0%

Asked: What does the record list as pest or weed control at 62.5 g/ha for COc1cc(C)cc([C@@H]2CN(C)C(=O)[C@H]2C(=O)Nc2cccc(F)c2C)c1 (racemic) ?
Given back: 0%

Asked: Report pest or weed control at 62.5 g/ha for C=C(C)c1cccc([C@@H]2CN(C)C(=O)[C@H]2C(=O)Nc2cccc(F)c2C)c1 (racemic) please.
Given back: 0%

Asked: Fill blank: measured pest or weed control at 62.5 g/ha of the compound CN1C[C@H](c2cccc(C(F)(F)F)c2)[C@@H](C(=O)Nc2cc(C#N)ccn2)C1=O (racemic) is ____.
Given back: 0%
